Tested on: Escherichia coli TOP10
Test: shrunken log2 fold change of peptide-encoding DNA abundance (4.5 h post-induction vs induction); higher = less antimicrobial activity (less host growth inhibition)
Conditions: time post-induction: 4.5 h; library: site-saturation at positions 5, 18, 19, 20
Cut-off -0.2 on shrunken log2 fold change, inclusive. At or above means met; below means not met.

chain	classification
RRIRLRPPRLPRPRPRPMHWPRP	met

Next up:
Has RRIRPRPPRLPRPRPRPRQSPRP a recorded shrunken log2 fold change greater than or equal to -0.2? met

----------
Test system: Escherichia coli TOP10;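 also: peptides expressed intracellularly from a pBAD plasmid library in pooled LB shake-flask culture, induced with 0.3% L-arabinose, DNA abundance read by NGS, three biological replicates, DESeq2 with apeglm shrinkage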
Experiment: shrunken log2 fold change of peptide-encoding DNA abundance (4.5 h post-induction vs induction); higher = less antimicrobial activity (less host growth inhibition)
Conditions: time post-induction: 4.5 h; library: site-saturation at positions 5, 18, 19, 20
Class (required): determined from shrunken log2 fold change; valid ranges are group 1 (below -0.1), group 2 (-0.1 to below 0.2), group 3 (0.2 or more)

Into which category would you place RRIRIRPPRLPRPRPRPKYDPRP ? group 1

Try RRIRLRPPRLPRPRPRPLNCPRP next. group 1

Try RRIRDRPPRLPRPRPRPRRKPRP next. group 3

Try RRIRMRPPRLPRPRPRPIFIPRP next. group 3

Try RRIRYRPPRLPRPRPRPRFGPRP next. group 3

Try RRIRKRPPRLPRPRPRPIGAPRP next. group 3

Try RRIRNRPPRLPRPRPRPDSHPRP next. group 2

Try RRIRVRPPRLPRPRPRPSEPPRP next. group 1
